Data origin, for the record: the supplement of paper PMC10981050

Give measured cell viability for each item. Keep answers brief.
Test system: K562
Assay: cell viability relative to vehicle control; higher = less cytotoxic;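 further: after 48 h exposure read by CellTiter-Glo luminescence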
Conditions: 10 µM; SRSF2 genotype: SRSF2 wt/wt
Counter-ions that a name gives are not always drawn.
Please state the figure in %; there is no need to write the unit.

Value lookup for cell viability; key = NC(=O)c1cnccn1 [Pyrazinamide (Pyrazinoic acid amide)] 110

Value lookup for cell viability; key = CNCC[C@@H](Oc1ccccc1C)c1ccccc1 [Atomoxetine HCl] 108

Value lookup for cell viability; key = CC(C)n1c([C@H](C)Nc2ncnc(N)c2C#N)cc2cccc(-c3ccc(=O)n(C)c3)c2c1=O 68.5

====

Test system: OCI-AML2
Assay: cell viability relative to vehicle control; higher = less cytotoxic
Conditions: 10 µM; SRSF2 genotype: P95H/wt
Structures can show the parent of a compound that is named as a salt.
# note: boundary value 70% maps to criterion not met; cell viability below it maps to criterion met

# check: cell viability < 70% for O=C1NC(=O)C(c2ccccc2[N+](=O)[O-])=C1Nc1ccc(O)c(Cl)c1 criterion not met

# check: cell viability < 70% for O.O=C([O-])c1ncccc1O.O=C([O-])c1ncccc1[O-].[H+].[O]=[V][OH] [VO-Ohpic trihydrate] criterion not met

# check: cell viability < 70% for Cc1c(Cl)cccc1Nc1ccccc1C(=O)O criterion not met

# check: cell viability < 70% for Cc1cc(C)nc(NS(=O)(=O)c2ccc(N)cc2)n1 [Sulfamethazine] criterion not met

# check: cell viability < 70% for O=P(O)(O)C(O)(Cc1cccnc1)P(=O)(O)O [Risedronate sodium] criterion not met

# check: cell viability < 70% for COc1cccc(-c2ccc(NC(=O)C3=C(C(=O)O)CCC3)c(F)c2)c1 criterion not met

# check: cell viability < 70% for O=C(O)Cc1cccc(OCCCN(Cc2cccc(C(F)(F)F)c2Cl)CC(c2ccccc2)c2ccccc2)c1 criterion not met

# check: cell viability < 70% for Nc1nc(N)c2nc(-c3cccc(O)c3)cnc2n1 criterion met

# check: cell viability < 70% for N=C(N)c1ccc(OCCCCCOc2ccc(C(=N)N)cc2)cc1 [Pentamidine isethionate] criterion met

# check: cell viability < 70% for COc1ccc(S(=O)(=O)Nc2cccnc2Nc2ccc(O)cc2)cc1 criterion met

# check: cell viability < 70% for CC(/C=C/C=C(\C)C(=O)O[C@@H]1O[C@H](CO[C@@H]2O[C@H](CO)[C@@H](O)[C@H](O)[C@H]2O)[C@@H](O)[C@H](O)[C@H]1O)=C\C=C\C=C(C)\C=C\C=C(/C)C(=O)O[C@@H]1O[C@H](CO[C@@H]2O[C@H](CO)[C@@H](O)[C@H](O)[C@H]2O)[C@@H](O)[C@H](O)[C@H]1O criterion not met

# check: cell viability < 70% for COCC[n+]1c2c(n(Cc3cnccn3)c1C)C(=O)c1ccccc1C2=O [YM155 (Sepantronium Bromide)] criterion met

# check: cell viability < 70% for Nc1ccc(S(=O)(=O)Nc2ccccn2)cc1 criterion not met

# check: cell viability < 70% for Cc1ccc(NCCN(C)CCNc2ccnc3cc(Cl)ccc23)c2c(=O)c3ccccc3sc12 criterion not met

# check: cell viability < 70% for CN(C)C(=O)C(CCN1CCC(O)(c2ccc(Cl)cc2)CC1)(c1ccccc1)c1ccccc1 [Loperamide hydrochloride] criterion met

# check: cell viability < 70% for CCC(C)SSc1ncc[nH]1 (stereo not drawn) criterion met

# check: cell viability < 70% for O[C@@H](COc1cccc2ncccc12)CN1CCN([C@@H]2c3ccccc3[C@@H]3[C@H](c4ccccc42)C3(F)F)CC1 criterion met

# check: cell viability < 70% for O=c1[nH]c(=O)n([C@H]2C[C@H](O)[C@@H](CO)O2)cc1F criterion met

# check: cell viability < 70% for COc1cc2nccc(Oc3ccc(NC(=O)NC4CC4)c(Cl)c3)c2cc1C(N)=O criterion met

# check: cell viability < 70% for CN1CCN(c2ccc(Nc3cc(-c4cccc(-n5ccc6cc(C7CC7)cc(F)c6c5=O)c4CO)cn(C)c3=O)nc2)CC1 criterion met

# check: cell viability < 70% for O=C(O)c1c[nH]c2cc(Cl)c(-c3ccc(C4(O)CCC4)cc3)cc12 criterion not met

# check: cell viability < 70% for CC(C)CC(NC(=O)C(Cc1ccccc1)CC(O)C(Cc1ccccc1)NC(=O)OC(C)(C)C)C(=O)NC(Cc1ccccc1)C(N)=O (stereo not drawn) criterion not met

# check: cell viability < 70% for OC[C@@H](O)[C@@H](O[C@@H]1O[C@H](CO)[C@H](O)[C@H](O)[C@H]1O)[C@H](O)[C@@H](O)CO criterion not met

# check: cell viability < 70% for N/N=c1\[nH][nH]/c(=N\N)c2ccccc12 [Dihydralazine sulphate] criterion not met

# check: cell viability < 70% for Cc1cc(NC(=O)c2cccc(NC(=O)/C=C/CN(C)C)c2)ccc1Nc1nccc(-c2cccnc2)n1 criterion met

# check: cell viability < 70% for Cc1ccc(Nc2nccc(N(C)c3ccc4c(C)n(C)nc4c3)n2)cc1S(N)(=O)=O [Pazopanib HCl] criterion met

# check: cell viability < 70% for C#Cc1cccc(Nc2ncnc3cc(OC)c(OCCCCCCC(=O)NO)cc23)c1 criterion met

# check: cell viability < 70% for COc1cn(-c2ccc(-n3cccn3)cc2F)nc(-c2ccnn2-c2ccccc2)c1=O criterion not met

# check: cell viability < 70% for Cc1cc(C)c(CNC(=O)c2cc(-c3ccc(CN4CCOCC4)cc3)cc3c2cnn3C2CCCC2)c(=O)[nH]1 criterion not met

# check: cell viability < 70% for Cc1nc2ccc(-n3ncc(C(=O)c4cc5ccccc5[nH]4)c3N)cc2[nH]1 criterion met

# check: cell viability < 70% for COc1ccc2c(c1O)-c1c(O)c(OC)cc3c1[C@H](C2)[N+](C)(C)CC3 [Magnoflorine] criterion not met

# check: cell viability < 70% for O=C(O)/C=C/c1ccc(O)cc1 criterion not met

====

Give measured cell viability for each item. Keep answers brief.
Test system: OCI-AML2
Experiment: cell viability relative to vehicle control; higher = less cytotoxic
Settings: 10 µM; SRSF2 genotype: P95H/wt
Where a name gives a salt, the structure may show the parent alone.
Please state the figure in %; there is no need to write the unit.

Value lookup for cell viability; key = CC#CC(=O)N1CC[C@@H](n2c(=O)n(-c3ccc(Oc4ccccc4)cc3)c3c(N)ncnc32)C1 [ONO-4059 (GS-4059) hydrochloride] 91

Value lookup for cell viability; key = Cc1cc(O)cc(OC2OC(CO)C(O)C(O)C2O)c1 (configuration not stated) [Orcinol glucoside] 108

Value lookup for cell viability; key = FC(F)(F)Oc1ccc2nc(-c3ccc(OCCOCCOc4ccc(-c5nc6ccc(OC(F)(F)F)cc6[nH]5)nc4)cn3)[nH]c2c1 18.4

Value lookup for cell viability; key = Cc1c(C(C)C)c(=O)n(-c2ccccc2)n1C [Propyphenazone (4-Isopropylantipyrine)] 86.9

Value lookup for cell viability; key = CC(=O)OC/C=C(\C)CCC=C(C)C [Geranyl acetate] 97.2

Value lookup for cell viability; key = CCc1cc(Nc2nc(-c3ccc(-n4cnc(C)c4)c(F)c3)cs2)c(C)cc1C 94.2

Value lookup for cell viability; key = CCOc1cn(-c2ccc(F)cc2C)nc1C(=O)Nc1ccc(Oc2ccnc3cc(OC)c(OC)cc23)c(F)c1 48.1

Value lookup for cell viability; key = Cc1cc(/N=N/c2ccc(S(=O)(=O)Nc3ccccn3)cc2)c(N)cc1O 26.2

Value lookup for cell viability; key = COc1cc(O)c(C(=O)/C=C/c2ccccc2)c(OC)c1 [Flavokawain B] 22.8

Value lookup for cell viability; key = Cc1ccccc1C(OCCN(C)C)c1ccccc1 (configuration not stated) [Orphenadrine citrate (Norflex)] 83.2

Value lookup for cell viability; key = Nc1[nH]c(=O)ncc1Br [5-Bromocytosine] 98.1

Value lookup for cell viability; key = C#C[C@]1(O)CC[C@H]2[C@@H]3CCC4=CCCC[C@@H]4[C@H]3C(=C)C[C@@]21CC [Desogestrel] 61

====

Give measured cell viability for each item. Keep answers brief.
System: OCI-AML2
Experiment: cell viability relative to vehicle control; higher = less cytotoxic
Conditions: 10 µM; SRSF2 genotype: wt/wt
Counter-ions that a name gives are not always drawn.
Please make sure the unit comes right after the number.

Value lookup for cell viability; key = Cn1c(Nc2ccc(C(F)(F)F)cc2)nc2cc(Oc3ccnc(-c4ncc(C(F)(F)F)[nH]4)c3)ccc21 47.4%

Value lookup for cell viability; key = O=C(O)c1ccc2c3c1cccc3c(=O)n1c3ccccc3nc21 97.5%

Value lookup for cell viability; key = NCCCCCN 97.7%

Value lookup for cell viability; key = O=C(Nc1cccc2cccnc12)c1ccc(N2C(=O)C3C4C=CC(C4)C3C2=O)cc1 (stereo not drawn) [IWR-1-endo] 98.8%

Value lookup for cell viability; key = CCOC(=O)[C@H](CCc1ccccc1)N[C@H]1CCc2ccccc2N(CC(=O)O)C1=O [Benazepril hydrochloride] 102%

Value lookup for cell viability; key = CC1(C)Cc2c(sc(NC(=O)c3ccn[nH]3)c2C(N)=O)C(C)(C)O1 104%

Value lookup for cell viability; key = O=C(/C=C/c1cccc(S(=O)(=O)Nc2ccccc2)c1)NO 4.34%

Value lookup for cell viability; key = CC#CC(=O)Nc1ccc2ncnc(Nc3cccc(Br)c3)c2c1 6.95%

Value lookup for cell viability; key = CC(C)CCNC(=O)[C@H](CC(C)C)NC(=O)[C@H]1O[C@@H]1C(=O)O [Loxistatin Acid (E-64C)] 105%

Value lookup for cell viability; key = NC1CC1c1ccc(-c2cccc(O)c2)cc1 (stereo unspecified) 92%

Value lookup for cell viability; key = COc1cc(NS(=O)(=O)c2ccc(N)cc2)nc(OC)n1 91.4%

Value lookup for cell viability; key = CC(C)n1c([C@H](C)Nc2ncnc(N)c2C#N)cc2cccc(-c3ccc(=O)n(C)c3)c2c1=O 19.1%

Value lookup for cell viability; key = COc1cc2ncnc(Nc3ccc(F)c(Cl)c3)c2cc1O 94%

Value lookup for cell viability; key = Cn1cc(-c2ccc(S(=O)(=O)n3ccc(/C=C/C(=O)Nc4ccccc4N)c3)cc2)cn1 8.21%

Value lookup for cell viability; key = Oc1ccc2c(c1)OC[C@]1(O)Cc3cc(O)c(O)cc3[C@H]21 77.5%

Value lookup for cell viability; key = COc1cc2nc(N3CCN(C(=O)C4CCCO4)CC3)nc(N)c2cc1OC (stereo unspecified) [Terazosin HCl] 104%

Value lookup for cell viability; key = CCS(=O)(=O)N1CCN(c2ccc(Nc3ncc(C(N)=O)c(NC4CC4)n3)cc2)CC1 15.5%

Value lookup for cell viability; key = COc1nc2ccc(Br)cc2cc1[C@@H](c1ccccc1)[C@@](O)(CCN(C)C)c1cccc2ccccc12 55.4%

Value lookup for cell viability; key = COc1cc2c(cc1OC)-c1cc3ccc(OC)c(OC)c3c[n+]1CC2 [Palmatine chloride] 80.9%

Value lookup for cell viability; key = C=C1C(=O)O[C@H]2[C@H]1CCC(C)=C1CC[C@@](C)(O)[C@@H]12 [Micheliolide] 11.1%

Value lookup for cell viability; key = CN(C)C(=O)COC(=O)Cc1ccc(OC(=O)c2ccc(NC(=N)N)cc2)cc1 [Camostat Mesilate (FOY-305)] 99.6%

Value lookup for cell viability; key = Clc1ccc2c(N3CCN(CCCN4CCN(c5ccnc6cc(Cl)ccc56)CC4)CC3)ccnc2c1 [Piperaquine phosphate] 88%

Value lookup for cell viability; key = COc1cc([C@@H]2c3cc4c(cc3[C@@H](O[C@@H]3O[C@@H]5CO[C@@H](c6cccs6)O[C@H]5[C@H](O)[C@H]3O)[C@H]3COC(=O)[C@H]23)OCO4)cc(OC)c1O [Teniposide (Vumon)] 0.72%

Value lookup for cell viability; key = Cc1cc(Cl)ccc1OCCCC(=O)NO 80.7%

Value lookup for cell viability; key = CCOc1cc(CC(=O)N[C@@H](CC(C)C)c2ccccc2N2CCCCC2)ccc1C(=O)O [Repaglinide] 116%

Value lookup for cell viability; key = CN(CCNCc1cn(Cc2ccc(Cl)cc2)nn1)CCNc1ccnc2cc(Cl)ccc12 0.68%

Value lookup for cell viability; key = C#C[C@]1(O)CC[C@H]2[C@@H]3CCC4=CC(=O)CC[C@@H]4[C@H]3CC[C@@]21C 111%

Value lookup for cell viability; key = O=C(c1ccc(/C=C/c2n[nH]c3ccccc23)cc1)N1CCNCC1 14.9%

Value lookup for cell viability; key = CCCCCCCCN=c1ccn(CCCCCCCCCCn2ccc(=NCCCCCCCC)cc2)cc1 [Octenidine Dihydrochloride] 0.41%

Value lookup for cell viability; key = C=C1CCC[C@]2(C)C[C@]3(O)OC(=O)C(C)=C3C[C@@H]12 [Atractylenolide III] 106%

Value lookup for cell viability; key = Cc1c(OCC(F)(F)F)ccnc1C[S+]([O-])c1nc2ccccc2[nH]1 (stereo unspecified) 102%
